# System under test: Caspase-1 (Homo sapiens, UniProt P29466)
# Sequence (P29466 120-297 limits assumed): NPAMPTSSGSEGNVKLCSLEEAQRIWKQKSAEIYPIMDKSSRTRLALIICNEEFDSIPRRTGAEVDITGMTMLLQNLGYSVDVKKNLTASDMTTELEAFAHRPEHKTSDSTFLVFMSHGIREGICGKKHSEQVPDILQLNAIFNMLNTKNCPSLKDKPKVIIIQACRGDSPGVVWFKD
# Sequence (P29466 317-404 limits assumed): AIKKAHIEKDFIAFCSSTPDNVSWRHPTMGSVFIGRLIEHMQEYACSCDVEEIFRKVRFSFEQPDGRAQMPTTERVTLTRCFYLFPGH
# Assay summary: Dissociation constant for inhibition of caspase-1
Where a SMILES comes first, the peptide text is derived from it. [ ]: non-standard residue; d: D form. ξ: configuration not given here. ξE = NC(CCC(=O)O)C(=O)O
Experimental readout: pKi
Expect pKi as a plain number equal to -log10 of the molar concentration.

Query :: Query: pKi; subject: O=C[C@H](CC(=O)O)NC(=O)[C@@H]1Cc2cccc3c2N1C(=O)[C@@H](NC(=O)c1cccc2ccccc12)CC3
Result :: 8.00

Query :: Query: pKi; subject: CC(=O)N[C@@H](Cc1ccc(O)cc1)C(=O)N[C@H](C(=O)N[C@@H](C)C(=O)N[C@@H](CC(=O)O)C(=O)C(=O)NCCc1ccccc1)C(C)C
Result :: 8.05

Query :: Query: pKi; subject: CC(=O)N[C@@H](Cc1ccc(O)cc1)C(=O)N[C@H](C(=O)N[C@@H](C)C(=O)NC(C=O)CCC(=O)O)C(C)C (stereo partly drawn) (Ac-YVA[ξE]-aldehyde)
Result :: 8.05
